These entries and their values trace back to patent US20110105397A1.

Known Log DR of a selection of binders
- ASSAY SYSTEM: T1, human corticotrophin releasing hormone receptor type 2 (CRHR2) (human, UniProt Q13324 1-411)
- T1 sequence (looked up): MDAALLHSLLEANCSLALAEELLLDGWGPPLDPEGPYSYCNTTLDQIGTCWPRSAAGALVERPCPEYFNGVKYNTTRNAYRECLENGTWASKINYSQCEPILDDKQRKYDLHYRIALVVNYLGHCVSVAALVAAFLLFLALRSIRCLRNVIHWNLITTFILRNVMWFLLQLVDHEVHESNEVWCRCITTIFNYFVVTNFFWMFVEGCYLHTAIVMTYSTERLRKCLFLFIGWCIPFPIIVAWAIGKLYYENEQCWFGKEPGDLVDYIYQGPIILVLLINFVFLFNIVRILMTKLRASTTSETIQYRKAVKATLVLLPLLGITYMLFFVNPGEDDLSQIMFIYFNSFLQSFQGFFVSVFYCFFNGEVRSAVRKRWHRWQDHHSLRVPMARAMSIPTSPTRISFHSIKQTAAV
- MEASUREMENT PROTOCOL: cell-based or functional assay
Where no end group is shown, it is not given here.

Example entries and their recorded answers appear below.
BINDER: TKFTLSLDVPTNIMNLLFNIAKAKNLRAQAAACAHLMAQI-NH2 [Cys-variant stresscopin-like peptide SEQ ID NO: 34]
TEST READOUT: Log DR
OBSERVED MEASUREMENT: > 3.19 log10
//
BINDER: TKFTLSLDVPTNIMNLLFNIAKACNLRAQAAANAHLMAQI (NES-PEG (about 20 kDa) on Cys 24; C-terminal amide (-NH2)) [Pegylated Cys-variant stresscopin-like peptide with NES linker and PEG about 20 kDa SEQ ID NO: 78]
TEST READOUT: Log DR
OBSERVED MEASUREMENT: ~1.52 log10

Turning now to a further binder:
Recorded Log DR (binder TKFTLSLDVPTNIMNLLFNIAKAKNLRAQCAANAHLMAQI (NES-PEG (about 20 kDa) on Cys 30; C-terminal amide (-NH2)) [Pegylated Cys-variant stresscopin-like peptide with NES linker and PEG about 20 kDa SEQ ID NO: 84] ): ~2.84 log10
